meta.source: patent US8541418B2

# targetOfAssay: PLK2 (Homo sapiens, UniProt Q9NYY3)
# Sequence (Q9NYY3 whole entry): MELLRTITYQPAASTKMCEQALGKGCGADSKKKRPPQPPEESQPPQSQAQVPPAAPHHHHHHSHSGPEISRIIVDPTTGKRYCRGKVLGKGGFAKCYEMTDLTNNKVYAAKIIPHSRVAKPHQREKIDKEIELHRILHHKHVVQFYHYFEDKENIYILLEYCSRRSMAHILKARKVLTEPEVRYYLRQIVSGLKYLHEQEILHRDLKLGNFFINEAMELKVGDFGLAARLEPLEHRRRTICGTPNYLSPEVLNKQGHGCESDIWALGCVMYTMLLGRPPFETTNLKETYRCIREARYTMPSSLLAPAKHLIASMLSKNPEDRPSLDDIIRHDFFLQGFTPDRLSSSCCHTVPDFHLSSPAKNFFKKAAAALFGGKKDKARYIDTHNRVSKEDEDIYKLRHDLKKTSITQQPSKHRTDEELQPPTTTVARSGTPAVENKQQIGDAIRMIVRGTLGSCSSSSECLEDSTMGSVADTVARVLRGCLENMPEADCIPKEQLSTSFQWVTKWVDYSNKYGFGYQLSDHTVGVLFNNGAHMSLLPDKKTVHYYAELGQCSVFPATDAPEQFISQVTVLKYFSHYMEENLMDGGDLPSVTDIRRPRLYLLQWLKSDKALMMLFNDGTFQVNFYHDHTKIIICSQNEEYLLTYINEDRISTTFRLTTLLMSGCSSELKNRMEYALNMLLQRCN
# assay: PLK TR-FRET peptide assay, PLK2
# Assay type: biochemical
# statedConditions: PLK TR-FRET peptide assay, GST-PLK2, 60 min reaction; read-out: Plk2 IC50
quantityName: IC50

State the recorded IC50 for this entry: CC[C@@H]1C(=O)N(C)c2cnc(N3CCN(C)CC3)nc2N1C1CCCC1
> 50000 nM

Quick one: IC50 of CC[C@@H]1C(=O)N(C)c2cnc(-n3ccnc3-c3ccc(F)c(Cl)c3)nc2N1C(C)C ?
< 1000 nM

Bench note: what IC50 did CC[C@@H]1C(=O)N(C)c2cnc(-c3sc(N)nc3-c3ccn[nH]3)nc2N1C(C)C show?
< 1000 nM

Entry CC[C@@H]1C(=O)N(C)c2cnc(N3CCCC3)nc2N1C1CCCC1 has what IC50?
1000 to 10000 nM

// lookup IC50 for CC[C@H]1C(=O)N(C)c2cnc(-n3ccnc3-c3ccc(F)cc3)nc2N1c1cccc(C#N)c1
1000 to 10000 nM

Recorded IC50 for CC[C@@H]1C(=O)N(C)c2cnc(-n3ccnc3-c3ccc(F)cn3)nc2N1CCC(F)(F)F , please?
< 1000 nM

Field request: IC50 | item: CC[C@@H]1C(=O)N(C)c2cnc(-n3cnc(-c4ccccc4)c3)nc2N1C1CCCC1
< 1000 nM

Record request: IC50 value, item CC[C@@H]1C(=O)N(C)c2cnc(-n3ccnc3-c3ccc(F)c(F)c3)nc2N1C1CC(F)C1 (stereo partly drawn)
< 1000 nM

Please look up its IC50: CC[C@@H]1C(=O)N(C)c2cnc(-n3ccnc3-c3cnccn3)nc2N1C1CC1
1000 to 10000 nM

// IC50 lookup, key: CC[C@@H]1C(=O)N(C)c2cnc(-c3cncnc3-c3ccc(C(F)(F)F)cc3)nc2N1C(C)C
10000 to 50000 nM

Need IC50, item [2H]C([2H])([2H])N1C(=O)C(C([2H])([2H])C([2H])([2H])[2H])N(C([2H])(C([2H])([2H])[2H])C([2H])([2H])[2H])c2nc(-n3ccnc3-c3ccc(F)cc3)ncc21 (racemic)
< 1000 nM

Sample CC(C)N1c2nc(-n3ccnc3-c3ccc(F)cc3)ncc2N(C)C(=O)C1(C)C — what was its IC50?
1000 to 10000 nM

Dear colleague, I am looking for the recorded IC50 of the following compound: CC[C@@H]1C(=O)N(C)c2cnc(-c3cn[nH]c3-c3nccs3)nc2N1C1CC(F)(F)C1
< 1000 nM

IC50 for CCC1C(=O)N(C)c2cnc(-c3cn[nH]c3-c3nccs3)nc2N1c1cccc(C#N)c1 (stereo not drawn) ?
< 1000 nM

Please look up its IC50: CCC1C(=O)N(C)c2cnc(-n3ccnc3)nc2N1c1cccc(-n2cccn2)c1 (stereo not drawn)
10000 to 50000 nM
